pIC50: −log10 of the molar value.
# literature pull: Vascular endothelial growth factor receptor 2 (Homo sapiens, UniProt P35968) pIC50
# Sequence (P35968 whole entry): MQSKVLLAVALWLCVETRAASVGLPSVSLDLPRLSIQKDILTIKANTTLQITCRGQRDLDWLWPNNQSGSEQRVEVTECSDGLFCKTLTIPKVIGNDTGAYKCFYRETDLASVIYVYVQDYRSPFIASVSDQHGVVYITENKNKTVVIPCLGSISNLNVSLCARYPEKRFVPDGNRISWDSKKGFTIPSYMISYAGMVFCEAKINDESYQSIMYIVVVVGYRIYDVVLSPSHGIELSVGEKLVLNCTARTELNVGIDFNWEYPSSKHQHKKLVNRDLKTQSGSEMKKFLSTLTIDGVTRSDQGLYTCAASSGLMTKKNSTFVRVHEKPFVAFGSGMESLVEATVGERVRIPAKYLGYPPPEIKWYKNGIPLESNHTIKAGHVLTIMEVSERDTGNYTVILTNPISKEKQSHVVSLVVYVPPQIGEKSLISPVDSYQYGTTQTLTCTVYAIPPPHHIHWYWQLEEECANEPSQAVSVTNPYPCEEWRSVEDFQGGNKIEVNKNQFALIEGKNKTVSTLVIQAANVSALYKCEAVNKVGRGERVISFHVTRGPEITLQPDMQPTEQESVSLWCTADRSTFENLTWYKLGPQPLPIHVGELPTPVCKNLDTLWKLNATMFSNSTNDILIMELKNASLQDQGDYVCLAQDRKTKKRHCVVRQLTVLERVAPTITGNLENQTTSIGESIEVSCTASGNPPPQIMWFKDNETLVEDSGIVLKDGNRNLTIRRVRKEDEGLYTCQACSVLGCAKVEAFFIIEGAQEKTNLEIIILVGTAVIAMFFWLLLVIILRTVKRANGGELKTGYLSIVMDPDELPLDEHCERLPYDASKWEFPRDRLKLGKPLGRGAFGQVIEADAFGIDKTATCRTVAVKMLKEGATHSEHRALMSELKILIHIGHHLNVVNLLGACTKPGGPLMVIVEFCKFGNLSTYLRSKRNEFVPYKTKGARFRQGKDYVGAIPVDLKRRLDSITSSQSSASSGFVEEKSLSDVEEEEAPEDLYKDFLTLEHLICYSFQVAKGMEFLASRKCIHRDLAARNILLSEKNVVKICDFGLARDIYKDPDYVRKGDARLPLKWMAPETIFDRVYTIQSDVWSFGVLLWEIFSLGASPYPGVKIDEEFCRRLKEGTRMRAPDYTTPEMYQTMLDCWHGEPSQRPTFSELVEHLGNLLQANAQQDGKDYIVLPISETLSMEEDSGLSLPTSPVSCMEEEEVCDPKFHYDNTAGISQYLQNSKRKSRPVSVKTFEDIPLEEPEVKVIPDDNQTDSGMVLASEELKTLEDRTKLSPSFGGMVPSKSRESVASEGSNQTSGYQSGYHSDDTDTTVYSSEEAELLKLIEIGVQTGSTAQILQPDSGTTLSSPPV

# MOLECULE, ASSAYED_TARGET, pIC50
records = [
    ("COC(=O)c1ccc2c(c1)NC(=O)/C2=C(\\Nc1ccc2[nH]cc(CN(C)C)c2c1)c1ccccc1", "Vascular endothelial growth factor receptor 2 (Homo sapiens, UniProt P35968)", "< 6.00"),
    ("CNC(=O)[C@@H](C)N(C)Cc1cc2c(Nc3cccc(Cl)c3F)ncnc2cc1OC", "Vascular endothelial growth factor receptor 2 (Homo sapiens, UniProt P35968)", "< 5.00"),
    ("CNC(=O)c1cc(Oc2ccc(C3CC(c4ccc([N+](=O)[O-])cc4)=NN3)cc2)ccn1 (centres undefined)", "Vascular endothelial growth factor receptor 2 (Homo sapiens, UniProt P35968)", "< 4.30"),
    ("COc1cc2ncnc(Nc3cccc(Cl)c3F)c2cc1CN(C)[C@@H](CN(C)C)C(N)=O", "Vascular endothelial growth factor receptor 2 (Homo sapiens, UniProt P35968)", "< 5.00"),
]
